- test details: A qHTS for Small Molecule Inhibitors of Shiga Toxin; further: 0% is about no effect
- applied conditions: Vero cells, Shiga toxin protein synthesis inhibition reporter; at 38.7 µM, stronger effect = higher value
About 27,000 (9.3%) of roughly 290,000 compounds were called active. The sample holds actives, similar compounds and a random draw of the others, so the mix is not that of the screen.
property label: inhibition (%)
Please reply with the bare figure in % and do not write the unit itself.

Here is how some compounds turned out for inhibition.
compound: COc1cc2c(cc1OC)C(C(=O)Nc1cc(C)c(OC)c(C)c1)CC(=O)N2 (configuration not stated)
value units: %
inhibition: 7.56
//
compound: Cc1cc(OCc2cc(C(=O)NCc3cc(C(C)C)no3)no2)cc(C)c1Cl
value units: %
inhibition: 79.8
//
compound: Cc1cccc(C(=O)Nc2ccc(C(=O)N/N=C/c3cccc(C)n3)cc2)c1
value units: %
inhibition: 3.17
//
compound: CCNS(=O)(=O)c1ccc(CCC(=O)N2CCN(c3ccc(OC)cc3)CC2)cc1
value units: %
inhibition: 13.1
//
compound: CC1=C(C(=O)Nc2ccccc2)SCCO1
value units: %
inhibition: 52.1

**Query** Return the recorded inhibition value; entry: CC(C)CNC(=S)NNC(=O)c1nn(C)cc1Cl
**Result** 4.35

**Query** Please supply the value of reported inhibition for the item C=CCNc1nc(C)nc(OC)n1
**Result** -12.3

**Query** Please give measured inhibition of the following entry: CCCCNC(=O)C1(O)c2ccccc2NC(=O)N1c1ccc(Cl)cc1 (configuration not stated)
**Result** 20.3

---

- test details: A qHTS for Small Molecule Inhibitors of Shiga Toxin; further: 0% is about no effect
- applied conditions: Vero cells, Shiga toxin protein synthesis inhibition reporter; at 38.7 µM, stronger effect = higher value
About 27,000 (9.3%) of roughly 290,000 compounds were called active. The sample holds actives, similar compounds and a random draw of the others, so the mix is not that of the screen.
Parameter: inhibition. Scope: all listed entries.
A number alone suffices; assume %.

Answered cases to consult:
entry smiles: Cc1cnc(C(=O)OCc2c(C)cc(C(C)(C)C)cc2C)cn1
property label: inhibition
obs value: -2.67
--
entry smiles: COc1cc2c(cc1OC)C(/C=C/c1ccco1)=NCC2
property label: inhibition
obs value: -7.71
--
entry smiles: Cc1cccc(-n2ncc(Cl)c(Cl)c2=O)c1
property label: inhibition
obs value: -17.2
--
entry smiles: Cc1ccc(-c2cc(N)on2)cc1
property label: inhibition
obs value: 108
--
entry smiles: C=CCNc1cnn(-c2ccc(C)cc2)c(=O)c1Cl
property label: inhibition
obs value: 127

**Query** Determine its reported inhibition: Cc1nc(Nc2ccc3c(c2)OCCO3)c2nnn(Cc3ccccc3Cl)c2n1
**Result** 153

---

- test details: A qHTS for Small Molecule Inhibitors of Shiga Toxin; further: 0% is about no effect
- applied conditions: Vero cells, Shiga toxin protein synthesis inhibition reporter; at 38.7 µM, stronger effect = higher value
Out of some 290,000 compounds screened, about 27,000 (9.3%) were called active. Many of the other results were omitted from the sample, so actives are more common in it than they were.
property label: inhibition (%)
Numbers only here, please. The scale is %.

Answered examples (2):
entry smiles: CCCC(=O)N1CCN(c2nnc(-c3ccc(C)cc3)c3ccccc23)CC1
inhibition (%): -11.9
--
entry smiles: COc1ccc(NCCc2ccccn2)cc1
inhibition (%): 85

**Query** Name the recorded inhibition of the compound listed here: COc1ccc(NS(=O)(=O)c2ccc(NC(C)=O)cc2)cc1OC
**Result** -6.59

**Query** Identify the reported inhibition for the following entry. CC(C)CN(CC(C)C)C(=O)CN1c2cccc3cccc(c23)S1(=O)=O
**Result** 2.89

**Query** Identify measured inhibition corresponding to O=C(CNC(=O)COc1ccccc1)NCCc1ccccn1
**Result** -6.4

**Query** Output measured inhibition for this item: Cc1c(C)c(C)c(S(=O)(=O)NCCc2ccccn2)c(C)c1C
**Result** -12.6

**Query** Determine from records and report inhibition for COc1ccccc1-n1cnc2cc(NS(=O)(=O)c3ccccc3)ccc21
**Result** 60.3

**Query** # return recorded inhibition for input O=S(=O)(c1cccc(Cn2nnc(-c3ccc(F)cc3)n2)c1)N1CCOCC1
**Result** -6.53

**Query** Give the reported value of inhibition for this record: O=c1[nH]cccc1-c1nc2ccccc2n1Cc1ccc(Cl)cc1
**Result** -20.4

**Query** Give the reported value of inhibition for this record: CCCc1cc(=O)[nH]c(SCC(=O)Nc2sc3c(c2C#N)CCCC3)n1
**Result** -2.72

**Query** Consider the compound C#CC(C)(C)NC(=O)c1cnc(-c2ccccc2)nc1-c1ccccc1 and give its recorded inhibition.
**Result** -5.15

From: PubChem BioAssay AID2315
